Molecular target: human NPR1 (Homo sapiens, UniProt P16066)
Construct: host or cells: CHO-K1
Sequence (P16066 33-1061): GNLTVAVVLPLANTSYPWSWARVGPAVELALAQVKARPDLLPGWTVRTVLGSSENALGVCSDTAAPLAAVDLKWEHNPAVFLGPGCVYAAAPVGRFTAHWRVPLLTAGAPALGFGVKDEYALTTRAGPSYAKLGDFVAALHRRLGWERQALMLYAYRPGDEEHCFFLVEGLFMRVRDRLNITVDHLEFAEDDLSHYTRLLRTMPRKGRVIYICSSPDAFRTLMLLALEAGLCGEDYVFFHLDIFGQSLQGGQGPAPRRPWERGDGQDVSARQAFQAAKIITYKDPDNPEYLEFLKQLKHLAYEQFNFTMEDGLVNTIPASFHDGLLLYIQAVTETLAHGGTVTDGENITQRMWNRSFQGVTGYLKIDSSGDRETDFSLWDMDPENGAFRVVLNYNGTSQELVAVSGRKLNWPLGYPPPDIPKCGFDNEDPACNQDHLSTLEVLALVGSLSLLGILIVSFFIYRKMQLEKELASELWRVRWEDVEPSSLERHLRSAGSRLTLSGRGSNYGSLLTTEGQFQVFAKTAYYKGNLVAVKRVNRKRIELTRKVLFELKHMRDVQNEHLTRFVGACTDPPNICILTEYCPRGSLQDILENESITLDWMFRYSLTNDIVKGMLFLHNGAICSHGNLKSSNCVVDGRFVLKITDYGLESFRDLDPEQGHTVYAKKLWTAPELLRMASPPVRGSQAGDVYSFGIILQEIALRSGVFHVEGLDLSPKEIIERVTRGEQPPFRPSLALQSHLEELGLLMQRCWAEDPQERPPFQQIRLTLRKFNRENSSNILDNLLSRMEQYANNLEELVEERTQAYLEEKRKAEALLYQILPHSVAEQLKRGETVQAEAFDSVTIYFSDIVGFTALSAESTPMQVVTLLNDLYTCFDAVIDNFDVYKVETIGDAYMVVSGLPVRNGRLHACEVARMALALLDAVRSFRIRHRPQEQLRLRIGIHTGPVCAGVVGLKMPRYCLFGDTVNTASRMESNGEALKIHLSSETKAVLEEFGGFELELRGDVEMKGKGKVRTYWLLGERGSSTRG
Assay: Cellular cGMP production assay, human NPR1 expressing CHO-K1 cells (CisBio HTRF)
Type: cell-based
Conditions: cGMP production, 30 min at 37° C., 12-point dose-response from 30 μM
ENDPOINT: AC50 (nM)
# output: bare number, implied unit nM

CC[C@@H](Nc1nc2c(c(N[C@@H](CN3CCC[C@H](C)C3)c3cnn(C(C)C)c3)n1)C[C@H](c1ccccc1)CC2)[C@H]1CC[C@H](C(=O)O)CC1 [Compound 22]: 114
CC[C@H]([C@H]1CC[C@H](C(=O)O)CC1)N(C)c1nc2c(c(N[C@@H](CN3C[C@H]4C[C@@H](C3)C4O)c3cnn(C)c3)n1)C[C@H](c1ccccc1)CC2 (stereo partly drawn) [Compound 138]: 852

Now for the compound whose AC50 we want.
*Q* Returns the measured AC50 for the input compound. Input: CC[C@H]([C@H]1CC[C@H](C(=O)O)CC1)N(C)c1nc2c(c(N[C@@H](CN3CC[C@@H](OC)C3)c3cnn(C)c3)n1)C[C@H](c1ccccc1)CC2 [Compound 181]
*A* 1810

----------
Parameter Monkey NPR1 Amax (% of ANP): see the listing below.
Molecular target: UniProt:A0A7N9DBT9
Sequence (A0A7N9DBT9 entry or part of it): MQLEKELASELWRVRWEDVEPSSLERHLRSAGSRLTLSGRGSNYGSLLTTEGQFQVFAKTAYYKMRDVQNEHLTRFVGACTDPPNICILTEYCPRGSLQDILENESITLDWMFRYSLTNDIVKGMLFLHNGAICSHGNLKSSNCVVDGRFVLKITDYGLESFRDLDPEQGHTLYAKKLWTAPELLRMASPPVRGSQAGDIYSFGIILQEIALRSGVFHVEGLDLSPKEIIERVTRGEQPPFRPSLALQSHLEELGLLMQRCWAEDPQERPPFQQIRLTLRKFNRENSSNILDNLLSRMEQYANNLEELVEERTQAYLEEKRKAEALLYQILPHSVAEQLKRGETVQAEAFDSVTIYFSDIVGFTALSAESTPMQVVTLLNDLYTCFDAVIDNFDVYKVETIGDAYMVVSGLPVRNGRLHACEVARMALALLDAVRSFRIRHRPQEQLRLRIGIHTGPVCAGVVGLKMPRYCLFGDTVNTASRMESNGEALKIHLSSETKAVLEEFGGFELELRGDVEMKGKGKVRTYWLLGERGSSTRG
Assay: Cellular cGMP production assay, monkey NPR1 expressing CHO-K1 cells (CisBio HTRF)
Format: cell-based
Settings: maximum cGMP production as percentage of the maximum cGMP produced with ANP, monkey NPR1 CHO-K1 cells

// worked examples, Monkey NPR1 Amax (% of ANP) included
CC[C@@H](N(C)c1nc2c(c(N[C@@H](CN3CCC[C@H](C)C3)c3cnn(CC)c3)n1)C[C@H](c1cccc(F)c1)CC2)C12CC(C(=O)O)(C1)C2: 100.145 % of ANP
C[C@H]1CCCN(C[C@H](Nc2nc(N(C)[C@H](C3CC3)[C@H]3CC[C@H](C(=O)O)CC3)nc3c2C[C@H](c2ccccc2)CC3)c2cnn(C)c2)C1: 102.755 % of ANP
CC[C@H]([C@H]1CC[C@H](C(=O)O)CC1)N(C)c1nc2c(c(N[C@@H](CN3C4CCCC3CCC4)c3cnn(C)c3)n1)C[C@H](c1ccccc1)CC2: 100.784 % of ANP

*Q* Returns the measured Monkey NPR1 Amax (% of ANP) for the input compound. Input: "CC[C@H]([C@H]1CC[C@H](C(=O)O)CC1)N(C)c1nc2c(c(N[C@@H](CN3CCC[C@H](COC)C3)c3cnn(C)c3)n1)C[C@H](c1cccc(F)c1)CC2"
*A* 104.934 % of ANP

*Q* Returns the measured Monkey NPR1 Amax (% of ANP) for the input compound. Input: "CC[C@@H](Nc1nc2c(c(N[C@@H](CN3CCCCC3)c3cnn(C)c3)n1)CN(c1cccc(F)c1)CC2)[C@H]1CC[C@H](C(=O)O)CC1"
*A* 93.391 % of ANP

----------
Target: UniProtKB A0A7N9DBT9
Assay: Cellular cGMP production assay, monkey NPR1 expressing CHO-K1 cells (CisBio HTRF)
Format: cell-based
Experimental: Cellular cGMP is a major second messenger that mediates cell activities and is synthesized by activated NPR1 triggered by binding of the natural ligand ANP. […] The assay was performed according to manufacturer's instructions with minor deviations. […] The readout was performed using an Envision plate reader (PerkinElmer) with an excitation wavelength of 317 nm and an emission wavelength of 665 nm. cGMP concentration (Delta F [° %]) was calculated according to the following formulae: […]
ENDPOINT: AC50 (nM)
# output: bare number, implied unit nM

CC[C@@H](Nc1nc2c(c(N[C@@H](CN3C4CCCC3CC4)c3cnn(C)c3)n1)C[C@H](c1ccccc1)CC2)[C@H]1CC[C@H](C(=O)O)CC1 [Compound 60]: 99

*Q* Returns the measured AC50 for the input compound. Input: CC[C@@H](N(C)c1nc2c(c(N[C@@H](CN3C4CCCC3CC4)c3cnn(CC)c3)n1)C[C@H](c1cccc(F)c1)CC2)C12CC(C(=O)O)(C1)C2 [Compound 42]
*A* 146

*Q* Returns the measured AC50 for the input compound. Input: CC[C@@H](Nc1nc2c(c(N[C@@H](CN3C4CCCC3CC4)c3ccccc3)n1)C[C@H](c1ccccc1)CC2)[C@H]1CC[C@H](C(=O)O)CC1 [Compound 49]
*A* 138
